Below, each entry is listed alongside its reported Affinity ELISA CPE mutant ratio (1:3, pH 6.0/7.4).
# target-system: Axl (UniProt P30530)
# Sequence (P30530 26-451 limits assumed): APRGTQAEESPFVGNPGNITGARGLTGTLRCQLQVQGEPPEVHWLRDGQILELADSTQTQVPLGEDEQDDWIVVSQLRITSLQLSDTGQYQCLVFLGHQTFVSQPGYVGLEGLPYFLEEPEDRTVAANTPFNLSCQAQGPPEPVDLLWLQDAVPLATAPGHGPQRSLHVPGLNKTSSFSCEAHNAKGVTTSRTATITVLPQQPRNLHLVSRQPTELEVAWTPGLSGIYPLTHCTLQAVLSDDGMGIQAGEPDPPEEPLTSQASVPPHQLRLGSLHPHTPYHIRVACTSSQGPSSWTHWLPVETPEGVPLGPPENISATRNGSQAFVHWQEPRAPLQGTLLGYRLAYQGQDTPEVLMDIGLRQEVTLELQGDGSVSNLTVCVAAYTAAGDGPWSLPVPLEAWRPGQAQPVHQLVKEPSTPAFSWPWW
# test-summary: ELISA, 1:3 dilution
API doc: respond with a numeric literal and nothing else, no unit.

Please give the measured Affinity ELISA CPE mutant ratio (1:3, pH 6.0/7.4) for this binder: LC-P095W (antibody, V domains shown) VH: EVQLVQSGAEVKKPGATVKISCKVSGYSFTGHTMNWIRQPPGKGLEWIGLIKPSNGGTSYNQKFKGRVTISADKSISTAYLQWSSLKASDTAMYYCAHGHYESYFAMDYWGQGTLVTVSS VL: DIQMTQSPSSLSASVGDRVTITCKASQDVSSAVAWYQQKPGQAPRLLIYWASTRHTGVPSRFSGSGSGTEFTLTISSLQPDDFATYYCQEHFSTWLTFGQGTKVEIK
2.15

Which measured Affinity ELISA CPE mutant ratio (1:3, pH 6.0/7.4) value corresponds to LC-H091F (antibody, V domains shown) VH: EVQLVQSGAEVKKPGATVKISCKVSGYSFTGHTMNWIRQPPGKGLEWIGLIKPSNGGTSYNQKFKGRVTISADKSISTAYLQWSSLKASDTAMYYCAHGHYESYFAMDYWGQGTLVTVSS VL: DIQMTQSPSSLSASVGDRVTITCKASQDVSSAVAWYQQKPGQAPRLLIYWASTRHTGVPSRFSGSGSGTEFTLTISSLQPDDFATYYCQEFFSTPLTFGQGTKVEIK ?
1.6

I'd like to know its Affinity ELISA CPE mutant ratio (1:3, pH 6.0/7.4). The binder in question is LC-A034N (antibody, V domains shown) VH: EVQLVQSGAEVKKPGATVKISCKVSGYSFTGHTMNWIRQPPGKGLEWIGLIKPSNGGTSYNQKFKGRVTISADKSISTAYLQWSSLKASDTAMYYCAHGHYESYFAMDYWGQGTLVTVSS VL: DIQMTQSPSSLSASVGDRVTITCKASQDVSSAVNWYQQKPGQAPRLLIYWASTRHTGVPSRFSGSGSGTEFTLTISSLQPDDFATYYCQEHFSTPLTFGQGTKVEIK
2.63
